TARGET ENTITY: T1, cynomolgus Gal10-His (WGS isoform) (cynomolgus)
T1 construct: also called cynomolgus antigen
METHOD: SPR Biacore 3000, hFab on cynomolgus Gal10-His (WGS) captured by anti-His CM5

{"BINDER": "g7B07_N53A (human Fab) (Fab, V domains shown, VH assembled by inference as for g7B07; Human Fab backbone; also called g7B07_N53A (mean)) VH: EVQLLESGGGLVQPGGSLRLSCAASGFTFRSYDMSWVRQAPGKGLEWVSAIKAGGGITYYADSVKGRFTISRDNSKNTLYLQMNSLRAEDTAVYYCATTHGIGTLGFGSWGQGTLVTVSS VL: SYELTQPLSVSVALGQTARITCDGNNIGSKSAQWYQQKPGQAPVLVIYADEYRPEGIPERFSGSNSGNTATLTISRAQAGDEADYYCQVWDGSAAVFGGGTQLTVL", "RESULT UNITS": "RU", "Amplitude R0": 30}
